Molecular target: 5-hydroxytryptamine receptor 6 (Homo sapiens)
pKi: −log10 of the molar value.
# label = yes (1) if pKi >= 8 else no (0)

{"compound": "CN(C)CCNC(=O)c1ccc2[nH]nc(S(=O)(=O)c3cccc4ccccc34)c2c1", "discreteLabel": "yes (1)"}
{"compound": "NCCC(=O)Nc1cccc2c(S(=O)(=O)c3cccc4ccccc34)n[nH]c12", "discreteLabel": "yes (1)"}
{"compound": "O=S(=O)(c1cccc2ccccc12)c1n[nH]c2c(NC3CCCNC3)cccc12 (stereo not given)", "discreteLabel": "no (0)"}
{"compound": "O=C(Nc1ccc2c(S(=O)(=O)c3cccc4ccccc34)n[nH]c2c1)C1CCNCC1", "discreteLabel": "no (0)"}
{"compound": "O=S(=O)(c1cccc2ccccc12)c1n[nH]c2ccc(CN3CCNCC3)cc12", "discreteLabel": "yes (1)"}
{"compound": "CN(C)CCC(=O)Nc1cccc2c(S(=O)(=O)c3cccc4ccccc34)n[nH]c12", "discreteLabel": "yes (1)"}
{"compound": "Cl.O=S(=O)(c1cccc(Cl)c1)c1n[nH]c2ccc(NC3CCNCC3)cc12", "discreteLabel": "yes (1)"}
{"compound": "Cl.O=S(=O)(c1cccc2ccccc12)c1n[nH]c2ccc(NC3CCNCC3)cc12", "discreteLabel": "yes (1)"}
{"compound": "O=S(=O)(c1cccc2ccccc12)c1n[nH]c2cccc(NC3CCCNC3)c12 (stereo not given)", "discreteLabel": "yes (1)"}

###

Let's look at some molecules and their measured Ki.
Target: 5-hydroxytryptamine receptor 6 (Homo sapiens, UniProt P50406)
Sequence (P50406 whole entry): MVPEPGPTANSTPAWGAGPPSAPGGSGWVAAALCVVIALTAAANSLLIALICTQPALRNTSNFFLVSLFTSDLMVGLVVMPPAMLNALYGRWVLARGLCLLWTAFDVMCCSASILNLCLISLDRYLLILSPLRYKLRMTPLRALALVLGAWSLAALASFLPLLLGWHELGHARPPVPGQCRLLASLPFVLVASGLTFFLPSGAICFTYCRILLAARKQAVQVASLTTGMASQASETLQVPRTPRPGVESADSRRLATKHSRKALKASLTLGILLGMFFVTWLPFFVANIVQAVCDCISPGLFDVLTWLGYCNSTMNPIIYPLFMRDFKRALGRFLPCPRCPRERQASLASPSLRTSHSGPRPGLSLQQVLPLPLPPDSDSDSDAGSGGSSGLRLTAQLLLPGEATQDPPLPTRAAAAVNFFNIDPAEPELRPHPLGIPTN
metric: Ki

{"molecule": "Cl.O=S(=O)(c1ccc2ccccc2c1)c1n[nH]c2ccc(NC3CCNCC3)cc12", "endpointResult": "0.6 nM"}
{"molecule": "O=C(Nc1cccc2c(S(=O)(=O)c3cccc4ccccc34)n[nH]c12)C1CCNCC1", "endpointResult": "28 nM"}
{"molecule": "O=S(=O)(c1ccccc1)c1n[nH]c2ccc(NC3CCNCC3)cc12", "endpointResult": "3.1 nM"}
{"molecule": "NCCNc1ccc2c(S(=O)(=O)c3cccc4ccccc34)n[nH]c2c1", "endpointResult": "17 nM"}
{"molecule": "NCCNCc1ccc2[nH]nc(S(=O)(=O)c3cccc4ccccc34)c2c1", "endpointResult": "12 nM"}
{"molecule": "CCN(CC)CCC(=O)Nc1cccc2c(S(=O)(=O)c3cccc4ccccc34)n[nH]c12", "endpointResult": "27 nM"}
{"molecule": "O=S(=O)(c1cccc2ccccc12)c1n[nH]c2ccc(NC3CCCNC3)cc12 (stereo not drawn)", "endpointResult": "1.7 nM"}
{"molecule": "O=C(NCCN1CCCCC1)c1ccc2[nH]nc(S(=O)(=O)c3cccc4ccccc34)c2c1", "endpointResult": "107 nM"}

###

The following compounds each carry a recorded pKi for UniProtKB P41595.
Sequence (P41595 whole entry): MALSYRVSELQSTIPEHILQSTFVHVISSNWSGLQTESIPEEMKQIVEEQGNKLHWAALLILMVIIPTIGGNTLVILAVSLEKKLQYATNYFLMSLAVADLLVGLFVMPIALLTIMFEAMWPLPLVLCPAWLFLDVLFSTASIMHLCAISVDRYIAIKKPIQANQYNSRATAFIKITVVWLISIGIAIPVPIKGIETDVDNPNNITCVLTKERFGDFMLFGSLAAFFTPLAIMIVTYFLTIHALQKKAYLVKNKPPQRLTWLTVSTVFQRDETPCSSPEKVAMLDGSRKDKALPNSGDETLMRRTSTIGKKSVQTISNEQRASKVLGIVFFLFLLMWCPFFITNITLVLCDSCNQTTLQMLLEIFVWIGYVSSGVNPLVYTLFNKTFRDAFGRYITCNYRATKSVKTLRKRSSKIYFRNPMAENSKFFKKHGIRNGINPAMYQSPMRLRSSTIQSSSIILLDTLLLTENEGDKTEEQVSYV
pKi: −log10 of the molar value.

{"smilesText": "Cl.O=S(=O)(c1cccc2ccccc12)c1n[nH]c2ccc(NC3CCNCC3)cc12", "pKi": 6.17}
{"smilesText": "CC(C)c1ccc(S(=O)(=O)c2n[nH]c3ccc(NC4CCNCC4)cc23)cc1.Cl", "pKi": 5.75}
{"smilesText": "Cl.O=C(Nc1ccc2[nH]nc(S(=O)(=O)c3cccc4ccccc34)c2c1)C1CCNCC1", "pKi": 7.48}
